# assayed system: human recombinant LPA2 expressed in CHO cells (Homo sapiens)
# Construct: expressed in transfected cells; host or cells: CHO cells (CHO-hLPA2 cell line)
# Sequence (Q9HBW0 whole entry): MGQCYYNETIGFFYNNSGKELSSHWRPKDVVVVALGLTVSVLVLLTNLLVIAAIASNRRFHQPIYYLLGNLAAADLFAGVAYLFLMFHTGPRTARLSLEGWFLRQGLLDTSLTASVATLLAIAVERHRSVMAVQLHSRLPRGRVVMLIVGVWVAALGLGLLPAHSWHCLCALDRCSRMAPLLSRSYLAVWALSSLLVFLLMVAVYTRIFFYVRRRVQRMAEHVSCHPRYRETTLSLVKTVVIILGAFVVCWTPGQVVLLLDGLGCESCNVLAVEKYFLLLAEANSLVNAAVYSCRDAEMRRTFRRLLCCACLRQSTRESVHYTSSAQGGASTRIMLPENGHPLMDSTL
# measurement protocol: FLIPR calcium mobilization assay, LPA2 antagonism in CHO-hLPA2 cells
# Format: cell-based
# condition context: CHO-hLPA2 cells, inhibition of LPA EC80 Ca2+ response, 30 min pre-incubation; read-out: LPA2 IC50
value kind: IC50

C[C@@H](CN1CCN(S(=O)(=O)c2ccc(Cl)c(Cl)c2)CC1)Nc1ncnc2c(-c3cccnc3)cccc12; < 10 nM
Cc1cc(-c2ccc(S(=O)(=O)N3CCN(C[C@H](C)Nc4ncnc5c(-c6cccc(CN(C)C)c6)cccc45)CC3)s2)on1; < 10 nM

Pending molecule:
Recorded IC50 for `COC(=O)Nc1nc(C)c(S(=O)(=O)N2CCN(C[C@H](C)Nc3ncnc4c(-c5ccc(CN(C)C)nc5)cccc34)CC2)s1` , please?
< 10 nM

Provenance of the data: patent US20240190860A1
